Assay: GDH-TPI coupling enzyme inhibitors, primary screen, artefact control for M. tuberculosis FBA inhibitor project, biochemical, absorbance, full deck (AID 588335);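 also: 0% = DMSO wells and 100% = wells lacking the enzyme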
Conditions: GDH-TPI coupled enzyme counterscreen, NADH absorbance; at 4.8 µM; stronger effect = higher value
Hit rate of the full screen: of about 360,000 compounds, about 4,500 (1.2%) were called active. The sample as a whole holds a higher share of actives than the screen did.
MEASURE_NAME: inhibition (%)
Output spec: scalar in %, unitless text.

                                 molecule  measure_name  reported_value
0  COc1ccc2nc(C)cc(Nc3cccc(C(=O)O)c3)c2c1    inhibition            32.2

Below: the item to evaluate.
Query :: For `CSc1ccc(/C=C2\NC(=O)NC2=O)cc1` , write its inhibition.
Result :: 27.3
